The measurements presented in this section are drawn from the supplement of paper PMC10037445.

- Test system: RAW-Dual
- measurement_protocol: NF-kB SEAP reporter activity, fold change vs agonist alone; higher = enhanced NF-kB activity
- condition_context: library stock concentration (final ~1000-fold dilution): 10 mM water; cytotoxicity flag (confluency mask): not cytotoxic; agonist: MPLA (TLR4) […]
The full ranking holds about 2,900 compounds; the median of “NF-kB SEAP reporter activity, fold change vs agonist alone” is about 0.99, and the highest 2% start at about 2.6. The list comes from a sample in which the highest values are over-represented; it also holds close analogues and randomly drawn compounds.
outcome_measure: NF-kB SEAP reporter activity
Numbers only.

Below, 4 molecules whose answers are already recorded.
molecule | system | outcome_measure | observed_result
CCOC(=O)CC(=O)O | RAW-Dual | NF-kB SEAP reporter activity | 1
CC(C)(C)N.CCCC(NC(C)C(=O)N1C(C(=O)O)CC2CCCCC21)C(=O)OCC (stereo not given) | RAW-Dual | NF-kB SEAP reporter activity | 1.04
CNC1C(O)C(OC2C(NC(=O)C(O)CN)CC(N)C(OC3OC(CN)C(O)C(O)C3O)C2O)OCC1(C)O.O=S(=O)(O)O (stereo not given) | RAW-Dual | NF-kB SEAP reporter activity | 1.01
CC(=O)c1c(C)c2cnc(Nc3ccc(N4CCNCC4)cn3)nc2n(C2CCCC2)c1=O.O=S(=O)(O)CCO | RAW-Dual | NF-kB SEAP reporter activity | 1.09

Input line: Note NF-kB SEAP reporter activity for the molecule shown: Br.COc1ccc2c3c1OC1CC(O)C=CC31CCN(C)C2 (stereo not given)
Output line: 0.997
